- Tested on: HL-60
- Assay explanation: Antiproliferative activity against human HL-60 cells assessed as inhibition of cell growth by MTT assay
- Format: functional, cell-based
Observable: pIC50
Numbers only, as −log10 of the molar value.

input_smiles=O=C(CCCCCCNc1nc2ccccc2nc1-c1nc2ccccc2o1)NO observable=pIC50 readout_value=6.05

Please examine the following record next.
Tell me measured pIC50 for "O=C(CCCCCCCNc1nc2ccccc2nc1-c1nc2ccccc2o1)NO" please. 6.05

---

- Tested on: HCT-116
- Assay explanation: Antiproliferative activity against human HCT-116 cells assessed as inhibition of cell growth by MTT assay
- Type: functional, cell-based
pIC50: −log10 of the molar value.
Decision: pIC50 compared against 5; not below it gives Fulfilled, below it gives Not fulfilled.

Check out these entries, answers already filled in.
input_smiles=O=C(CCCCCNc1nc2ccccc2nc1-c1nc2ccccc2o1)NO assigned_category=Fulfilled
input_smiles=O=C(CCCCCCNc1nc2ccccc2nc1-c1nc2ccccc2o1)NO assigned_category=Fulfilled
input_smiles=Nc1ccccc1NC(=O)CCCCCCNc1nc2ccccc2nc1-c1nc2ccccc2o1 assigned_category=Fulfilled
input_smiles=O=C(CCCCCCCNc1nc2ccccc2nc1-c1nc2ccccc2o1)NO assigned_category=Fulfilled
input_smiles=O=C(CCCNc1nc2ccccc2nc1-c1nc2ccccc2o1)NO assigned_category=Fulfilled

Decide: pIC50 of "Nc1ccccc1NC(=O)CCCNc1nc2ccccc2nc1-c1nc2ccccc2o1" >= 5? Not fulfilled

---

- Test system: MCF7
- Assay explanation: Antiproliferative activity against human MCF7 cells assessed as inhibition of cell growth by MTT assay
- Assay type: functional, cell-based
With a cut-off of 9 µM, any IC50 strictly below it is called T; any IC50 meeting it or above is called F.

Check out these entries, answers already filled in.
input_smiles=Nc1ccccc1NC(=O)CCCNc1nc2ccccc2nc1-c1nc2ccccc2o1 assigned_category=F
input_smiles=Nc1ccccc1NC(=O)CCCCCCCNc1nc2ccccc2nc1-c1nc2ccccc2o1 assigned_category=F
input_smiles=O=C(CCCCCNc1nc2ccccc2nc1-c1nc2ccccc2o1)NO assigned_category=T
input_smiles=Nc1ccccc1NC(=O)CCCCCNc1nc2ccccc2nc1-c1nc2ccccc2o1 assigned_category=F
input_smiles=O=C(CCCCCCNc1nc2ccccc2nc1-c1nc2ccccc2o1)NO assigned_category=T

Say whether its IC50 is strictly beneath 9 µM. Entry: "O=C(CCCCCCCNc1nc2ccccc2nc1-c1nc2ccccc2o1)NO" T

Say whether its IC50 is strictly beneath 9 µM. Entry: "Nc1ccccc1NC(=O)CCCCCCNc1nc2ccccc2nc1-c1nc2ccccc2o1" T

Say whether its IC50 is strictly beneath 9 µM. Entry: "O=C(CCCNc1nc2ccccc2nc1-c1nc2ccccc2o1)NO" T

---

Would you kindly list IC50 for each of these compounds?
- System: A2780
- Assay explanation: Antiproliferative activity against human A2780 cells assessed as inhibition of cell growth by MTT assay
- Format: functional, cell-based
Hi, when you answer, please include the unit after the number. Thanks!

input_smiles=O=C(CCCCCNc1nc2ccccc2nc1-c1nc2ccccc2o1)NO readout_value="4.07 µM"
input_smiles=Nc1ccccc1NC(=O)CCCCCCCNc1nc2ccccc2nc1-c1nc2ccccc2o1 readout_value="7.13 µM"
input_smiles=O=C(CCCCCCNc1nc2ccccc2nc1-c1nc2ccccc2o1)NO readout_value="1.76 µM"
input_smiles=Nc1ccccc1NC(=O)CCCCCNc1nc2ccccc2nc1-c1nc2ccccc2o1 readout_value="12.6 µM"
input_smiles=Nc1ccccc1NC(=O)CCCNc1nc2ccccc2nc1-c1nc2ccccc2o1 readout_value="23.9 µM"

I need IC50 for every entry listed below, if you could help.
1. O=C(CCCNc1nc2ccccc2nc1-c1nc2ccccc2o1)NO
2. Nc1ccccc1NC(=O)CCCCCCNc1nc2ccccc2nc1-c1nc2ccccc2o1
3. O=C(CCCCCCCNc1nc2ccccc2nc1-c1nc2ccccc2o1)NO

6.29 µM
17.9 µM
3.27 µM

---

- Assay explanation: Cytotoxicity against HUVEC cells assessed as inhibition of cell growth by MTT assay
- Condition parameters: human
With a cut-off of 20 µM, any IC50 strictly below it is called TRUE; any IC50 meeting it or above is called FALSE.

Check out these entries, answers already filled in.
input_smiles=Nc1ccccc1NC(=O)CCCNc1nc2ccccc2nc1-c1nc2ccccc2o1 assigned_category=FALSE
input_smiles=O=C(CCCCCNc1nc2ccccc2nc1-c1nc2ccccc2o1)NO assigned_category=TRUE
input_smiles=Nc1ccccc1NC(=O)CCCCCCCNc1nc2ccccc2nc1-c1nc2ccccc2o1 assigned_category=FALSE

Say whether its IC50 is strictly beneath 20 µM. Entry: "Nc1ccccc1NC(=O)CCCCCCNc1nc2ccccc2nc1-c1nc2ccccc2o1" TRUE

Say whether its IC50 is strictly beneath 20 µM. Entry: "Nc1ccccc1NC(=O)CCCCCNc1nc2ccccc2nc1-c1nc2ccccc2o1" TRUE

Say whether its IC50 is strictly beneath 20 µM. Entry: "O=C(CCCCCCCNc1nc2ccccc2nc1-c1nc2ccccc2o1)NO" TRUE
